system: T1, human TNFR2 (Novoprotein, Cat #C830) (human, UniProt P20333 23-257, limits assumed)
T1 construct: construct not described; also called human TNFR2 protein
T1 sequence (looked up): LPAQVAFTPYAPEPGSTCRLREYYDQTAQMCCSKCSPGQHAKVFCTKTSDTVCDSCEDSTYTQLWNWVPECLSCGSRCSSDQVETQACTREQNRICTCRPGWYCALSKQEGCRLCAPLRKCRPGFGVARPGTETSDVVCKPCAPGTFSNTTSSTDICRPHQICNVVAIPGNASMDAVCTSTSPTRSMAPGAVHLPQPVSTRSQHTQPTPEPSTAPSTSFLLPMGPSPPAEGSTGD
test_summary: competition ELISA, human TNFR2 coated, competitor human TNFα-Biotin
Listed binders paired with reported IC50
Report as a plain number; the unit µg/mL is understood.

| binder | measurement_unit | IC50 |
| --- | --- | --- |
| 219-Hu4 (antibody, V domains shown, also called VH6 + VL5) VH: QVQLVQSGAEVKKPGSSVKVSCKASGYSFTNYWMNWVKQAPGQGLEWIGMIHPSDTETRLNQNFKDKATLTVDKSTSTAYMELSSLRSEDTAVYYCARGEGLGAARSVSMDYWGQGTLVTVSS VL: DIQMTQSPSSLSASVGDRVTITCRASQDISNYLNWYQQKPDGTVKLLIYYTAILHSGVPSRFSGSGSGTDYSLTISSLQPEDFATYFCQQGNTLPWTFGQGTKVEIK | µg/mL | 0.606 |

Consider now this further binder.
What value of IC50 has been recorded for this entry: 219-Hu5 (antibody, V domains shown, also called VH7 + VL5) VH: QVQLVQSGAEVKKPGSSVKVSCKASGYSFTNYWMNWVRQAPGQGLEWMGMIHPSDTETRLNQNFKDRVTITVDKSTSTAYMELSSLRSEDTAVYYCARGEGLGAARSVSMDYWGQGTLVTVSS VL: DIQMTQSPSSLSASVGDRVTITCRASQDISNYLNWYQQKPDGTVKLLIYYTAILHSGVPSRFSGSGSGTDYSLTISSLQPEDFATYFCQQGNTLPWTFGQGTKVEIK
0.578
